The measurements presented in this section are drawn from patent US8957192B2.

- Tested on: T-1191-MUC-1 cells
- assayProtocol: IFN-γ production (ELISA) by T-1191-MUC-1 cells stimulated with peptide-pulsed autologous B cells
- Type: cell-based, human
- protocolConditions: T-1191-MUC-1 at IVS-3; autologous EBV-B cells pulsed 25 μg/ml; effector-to-APC 1:3; 24 h
Readings of Production of IFN-γ, with peptide for the listed sequences
readoutLabel: Production of IFN-γ, with peptide (pg/mL)

sequenceData: ALLVLVCVLV [Peptide P-1162]
modifier: <
numericValue: 52.3
//
sequenceData: LAFREGTINV [Peptide P-1105]
modifier: <
numericValue: 52.3
//
sequenceData: TISDVSVSDV [Peptide P-1135]
modifier: =
numericValue: 347.2
//
sequenceData: GTQSPFFLLL [Peptide P-4]
modifier: =
numericValue: 260.0
//
sequenceData: LQRDISEMFL [Peptide P-1069]
modifier: =
numericValue: 288.0
//
sequenceData: WGQDVTSVPV [Peptide P-94]
modifier: =
numericValue: 323.6
//
sequenceData: ALAIVYLIAL [Peptide P-1172]
modifier: <
numericValue: 52.3
//
sequenceData: REGTINVHDV [Peptide P-1108]
modifier: <
numericValue: 52.3
//
sequenceData: VLVALAIVYL [Peptide P-1169]
modifier: <
numericValue: 52.3
//
sequenceData: LIALAVCQC (YLIALAVCQC) [Peptide P-1177]
modifier: <
numericValue: 52.3
//
sequenceData: TLASHSTKTD [Peptide P-1104]
modifier: =
numericValue: 305.6
